# System tested: MAPK13 (human)
# Assay details: radiometric filter-binding kinase assay
# Conditions used: compound 10.0 µM; ATP 100 µM
Below, each entry is listed alongside its reported residual activity.
Value and unit, in that order.

{"Smiles representation": "O=C1Nc2ccccc2/C1=C1\\Nc2ccccc2\\C1=N/O", "System tested": "MAPK13 (human)", "Result": "65%"}
{"Smiles representation": "O=C(O[C@@H]1Cc2c(O)cc(O)cc2O[C@@H]1c1cc(O)c(O)c(O)c1)c1cc(O)c(O)c(O)c1", "System tested": "MAPK13 (human)", "Result": "60%"}
{"Smiles representation": "CC(C)(C)n1nc(-c2ccc(Cl)cc2)c2c(N)ncnc21", "System tested": "MAPK13 (human)", "Result": "96%"}

If you can, please state the reported residual activity value of CC[C@@H](CO)Nc1nc(NCc2ccccc2)c2ncn(C(C)C)c2n1 . 106%

Same for CC(C)[C@H](CO)Nc1nc(Nc2cccc(Cl)c2)c2ncn(C(C)C)c2n1 98%

====

# System tested: PDPK1 (human)
# Assay details: radiometric filter-binding kinase assay
# Conditions used: compound 10.0 µM; ATP 100 µM
Recorded endpoint: residual activity (%)
Your answer should be a plain number; it is taken to be in %.

Return residual activity measured with PDPK1 (human) given this compound: O=C(O[C@@H]1Cc2c(O)cc(O)cc2O[C@@H]1c1cc(O)c(O)c(O)c1)c1cc(O)c(O)c(O)c1 50

Same for CC(C)(C)n1nc(-c2ccc(Cl)cc2)c2c(N)ncnc21 99

Same for O=C1Cc2c([nH]c3ccc(Br)cc23)-c2ccccc2N1 52

Same for CC[C@@H](CO)Nc1nc(NCc2ccccc2)c2ncn(C(C)C)c2n1 104

Same for CN(C)S(=O)(=O)c1ccc2c(c1)/C(=C/c1cc3c([nH]1)CCCC3)C(=O)N2 94

====

# Tested on: DYRK1A (rat)
# Assay details: radiometric filter-binding kinase assay
# Conditions used: compound 10.0 µM; ATP 100 µM; accession and sequence are those of the human protein
Recorded endpoint: residual activity (%)
Your answer should be a plain number; it is taken to be in %.

Here's what some known entries look like.
{"Smiles representation": "Nc1ncnc2c1cnn2-c1ccccc1", "System tested": "DYRK1A (rat)", "Reading unit": "%", "residual activity": 60}
{"Smiles representation": "CC(C)[C@H](CO)Nc1nc(Nc2cccc(Cl)c2)c2ncn(C(C)C)c2n1", "System tested": "DYRK1A (rat)", "Reading unit": "%", "residual activity": 6}
{"Smiles representation": "COC(=O)[C@@]1(OC)C[C@@H]2O[C@]1(C)n1c3ccccc3c3c4c(c5c6ccccc6n2c5c31)C(=O)N(C)C4", "System tested": "DYRK1A (rat)", "Reading unit": "%", "residual activity": 112}
{"Smiles representation": "O=C1Nc2ccccc2/C1=C1\\Nc2ccccc2\\C1=N/O", "System tested": "DYRK1A (rat)", "Reading unit": "%", "residual activity": 62}

If you can, please state the reported residual activity value of O=C1c2ccccc2-c2n[nH]c3cccc1c23 . 16

====

# System tested: MAPKAPK2 (human)
# Assay details: radiometric filter-binding kinase assay
# Conditions used: compound 10.0 µM; ATP 100 µM
Below, each entry is listed alongside its reported residual activity.
Your answer should be a plain number; it is taken to be in %.

Here's what some known entries look like.
{"Smiles representation": "O=C(O[C@@H]1Cc2c(O)cc(O)cc2O[C@@H]1c1cc(O)c(O)c(O)c1)c1cc(O)c(O)c(O)c1", "residual activity / %": 79}
{"Smiles representation": "CN(C)S(=O)(=O)c1ccc2c(c1)/C(=C/c1cc3c([nH]1)CCCC3)C(=O)N2", "residual activity / %": 96}
{"Smiles representation": "Nc1ncnc2c1cnn2-c1ccccc1", "residual activity / %": 98}
{"Smiles representation": "O=C1c2ccccc2-c2n[nH]c3cccc1c23", "residual activity / %": 72}

Would you kindly look at the next entry?
If you can, please state the reported residual activity value of COC(=O)[C@@]1(OC)C[C@@H]2O[C@]1(C)n1c3ccccc3c3c4c(c5c6ccccc6n2c5c31)C(=O)N(C)C4 . 71

From: the kinase profiling compilation of Christmann-Franck et al. (2016)
